Source: ChEMBL document CHEMBL1961873

target: G protein-coupled receptor kinase 6 (Homo sapiens) (UniProt P43250); conditions: at 1 µM;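 note: values are averaged percent inhibition of GRK6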
Sequence (P43250 whole entry, looked up): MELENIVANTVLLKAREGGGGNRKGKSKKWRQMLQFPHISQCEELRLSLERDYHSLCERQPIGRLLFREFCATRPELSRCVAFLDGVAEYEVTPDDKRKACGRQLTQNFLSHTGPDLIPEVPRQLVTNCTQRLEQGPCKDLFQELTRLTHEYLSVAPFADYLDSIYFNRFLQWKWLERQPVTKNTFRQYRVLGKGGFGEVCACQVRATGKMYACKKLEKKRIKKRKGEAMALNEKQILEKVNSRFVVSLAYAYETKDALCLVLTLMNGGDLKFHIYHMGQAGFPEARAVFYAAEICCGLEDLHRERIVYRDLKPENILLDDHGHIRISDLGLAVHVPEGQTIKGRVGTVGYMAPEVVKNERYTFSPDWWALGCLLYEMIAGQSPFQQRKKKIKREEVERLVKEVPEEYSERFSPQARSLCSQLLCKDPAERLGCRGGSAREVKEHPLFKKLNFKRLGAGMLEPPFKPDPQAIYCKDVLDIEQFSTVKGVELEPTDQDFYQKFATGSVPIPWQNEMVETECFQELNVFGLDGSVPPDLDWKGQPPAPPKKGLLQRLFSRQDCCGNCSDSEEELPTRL
assay endpoint: inhibition
Note: state the figure and append the unit.

- compound: "COc1cc(N2CCN(C(C)C)CC2)ccc1Nc1nc(Nc2cccc3ncccc23)c2cc[nH]c2n1"
  inhibition: "-0.02%"

Record c1cnn2ncc(-c3ccnc(NCCCN4CCOCC4)n3)c2c1 . Reported inhibition: 3.86%

// inhibition value for c1ccc(-c2n[nH]cc2-c2ccnc(-c3ccc(OCCn4ccnc4)cc3)c2)nc1 : 4.13%

Reported inhibition ( CC1(C)CC(n2cnc(-c3ccc(F)cc3)c2-c2ccnc(N)n2)CC(C)(C)N1 ) = 2.33%

Recorded inhibition (compound Cc1c2ccc(N(C)c3ccnc(Nc4cccc(S(N)(=O)=O)c4)n3)cc2nn1C ): 1.02%

// inhibition lookup, compound = CS(=O)(=O)CCNCc1ccoc1-c1ccc2ncnc(Nc3ccc(OCc4ccccc4)cc3)c2c1 , result: 1.77%

----------
system: Platelet-derived growth factor receptor alpha (Homo sapiens), P16234 [T674I]; conditions: at 1 µM
Sequence (P16234 whole entry T674I): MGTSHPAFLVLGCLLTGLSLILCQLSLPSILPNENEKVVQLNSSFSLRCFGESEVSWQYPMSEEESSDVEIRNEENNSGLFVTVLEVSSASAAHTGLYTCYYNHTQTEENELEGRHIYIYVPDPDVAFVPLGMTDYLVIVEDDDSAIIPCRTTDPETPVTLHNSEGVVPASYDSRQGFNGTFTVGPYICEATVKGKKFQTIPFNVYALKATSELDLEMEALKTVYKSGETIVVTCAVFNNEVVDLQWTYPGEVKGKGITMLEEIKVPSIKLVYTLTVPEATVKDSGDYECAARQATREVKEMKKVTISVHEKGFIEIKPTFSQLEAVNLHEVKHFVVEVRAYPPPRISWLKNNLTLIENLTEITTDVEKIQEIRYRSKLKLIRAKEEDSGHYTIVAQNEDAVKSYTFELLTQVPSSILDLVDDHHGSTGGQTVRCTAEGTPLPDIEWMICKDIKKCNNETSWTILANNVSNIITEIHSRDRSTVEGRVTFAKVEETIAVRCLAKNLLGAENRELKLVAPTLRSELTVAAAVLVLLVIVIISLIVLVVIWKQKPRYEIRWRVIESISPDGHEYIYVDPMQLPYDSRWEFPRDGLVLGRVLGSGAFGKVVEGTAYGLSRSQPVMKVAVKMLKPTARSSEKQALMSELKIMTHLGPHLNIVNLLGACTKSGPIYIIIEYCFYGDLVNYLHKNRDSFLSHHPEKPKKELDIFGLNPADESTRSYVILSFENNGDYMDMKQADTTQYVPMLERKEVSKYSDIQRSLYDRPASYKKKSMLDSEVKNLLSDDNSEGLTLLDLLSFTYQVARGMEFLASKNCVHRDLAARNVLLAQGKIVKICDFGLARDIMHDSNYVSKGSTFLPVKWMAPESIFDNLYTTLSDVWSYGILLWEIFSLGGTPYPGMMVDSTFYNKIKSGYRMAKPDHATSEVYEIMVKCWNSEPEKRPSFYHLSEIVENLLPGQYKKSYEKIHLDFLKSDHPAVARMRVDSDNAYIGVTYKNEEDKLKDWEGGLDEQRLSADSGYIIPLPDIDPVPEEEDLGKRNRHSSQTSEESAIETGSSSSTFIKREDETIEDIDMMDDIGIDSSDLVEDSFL
We'd kindly ask you to apply these inhibition classes: interval 1 (below 7%), interval 2 (7% to below 10%), interval 3 (10% or more)

Below, 3 molecules whose answers are already recorded.
- sample smiles: "CS(=O)(=O)Nc1ccc(-c2cc(-c3ccccc3)cc(C(N)=O)c2N)cc1"
  tested target: "Platelet-derived growth factor receptor alpha (Homo sapiens), P16234 [T674I]"
  category label: "interval 2"
- sample smiles: "COc1cc(N2CCN(C(C)C)CC2)ccc1Nc1nc(Nc2cccc(F)c2C(=O)O)c2cc[nH]c2n1"
  tested target: "Platelet-derived growth factor receptor alpha (Homo sapiens), P16234 [T674I]"
  category label: "interval 2"
- sample smiles: "O=C1Nc2ccccc2/C1=C1\\CCc2cc(O)ccc21"
  tested target: "Platelet-derived growth factor receptor alpha (Homo sapiens), P16234 [T674I]"
  category label: "interval 3"

// bin(item) where item = N#Cc1ccc2c(-c3ccnc(NC4CC4)n3)c(-c3ccc(F)cc3)nn2c1
interval 1

----------
Entries and their inhibition
Target: Ephrin type-B receptor 2 (Homo sapiens) (UniProt P29323)
Sequence (whole entry): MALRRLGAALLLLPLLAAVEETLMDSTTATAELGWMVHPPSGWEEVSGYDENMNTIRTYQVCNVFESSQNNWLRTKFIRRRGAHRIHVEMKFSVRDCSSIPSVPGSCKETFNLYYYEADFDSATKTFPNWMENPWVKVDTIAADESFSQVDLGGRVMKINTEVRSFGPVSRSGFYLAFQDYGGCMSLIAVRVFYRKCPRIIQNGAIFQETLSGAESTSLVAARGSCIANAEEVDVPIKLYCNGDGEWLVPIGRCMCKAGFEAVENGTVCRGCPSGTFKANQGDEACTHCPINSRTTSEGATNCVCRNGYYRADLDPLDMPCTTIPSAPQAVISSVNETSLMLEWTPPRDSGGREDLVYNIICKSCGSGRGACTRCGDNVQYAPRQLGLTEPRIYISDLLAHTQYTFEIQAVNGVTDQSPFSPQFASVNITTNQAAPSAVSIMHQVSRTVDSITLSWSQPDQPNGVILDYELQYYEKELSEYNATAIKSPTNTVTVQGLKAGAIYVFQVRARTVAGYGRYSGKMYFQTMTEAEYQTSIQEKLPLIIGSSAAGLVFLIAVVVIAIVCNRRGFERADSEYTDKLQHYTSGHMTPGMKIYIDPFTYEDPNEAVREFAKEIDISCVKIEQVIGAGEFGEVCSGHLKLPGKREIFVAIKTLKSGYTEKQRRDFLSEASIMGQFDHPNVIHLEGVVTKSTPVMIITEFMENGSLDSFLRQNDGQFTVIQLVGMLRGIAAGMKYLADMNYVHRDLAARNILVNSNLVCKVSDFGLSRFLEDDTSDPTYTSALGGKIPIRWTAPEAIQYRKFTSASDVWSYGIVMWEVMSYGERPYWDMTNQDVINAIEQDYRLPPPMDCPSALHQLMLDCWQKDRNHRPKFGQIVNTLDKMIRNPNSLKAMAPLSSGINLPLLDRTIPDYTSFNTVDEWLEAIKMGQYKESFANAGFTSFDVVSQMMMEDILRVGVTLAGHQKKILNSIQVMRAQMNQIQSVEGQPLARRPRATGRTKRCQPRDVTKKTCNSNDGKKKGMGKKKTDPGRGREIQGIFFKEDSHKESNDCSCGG
Conditions: at 1 µM
Description: GSK_PKIS: EPHB2 mean inhibition at 1 uM [Nanosyn]

Record excerpt, results attached:
- sample smiles: "Cc1c2ccc(N(C)c3ccnc(Nc4cccc(S(N)(=O)=O)c4)n3)cc2nn1C"
  assay endpoint: "inhibition"
  endpoint value: "23.3%"
- sample smiles: "CN1CCC(n2cnc(-c3ccc(F)cc3)c2-c2ccnc(NCCO)n2)CC1"
  assay endpoint: "inhibition"
  endpoint value: "10.7%"
- sample smiles: "N#Cc1ccc2c(-c3ccnc(NC4CC4)n3)c(-c3ccc(F)cc3)nn2c1"
  assay endpoint: "inhibition"
  endpoint value: "24.5%"
- sample smiles: "COc1cc(N2CCN(C(C)C)CC2)ccc1Nc1nc(Nc2cccc3ncccc23)c2cc[nH]c2n1"
  assay endpoint: "inhibition"
  endpoint value: "2.09%"
- sample smiles: "CN(C)CCNC(=O)Nc1ccc(N(C)c2ccnc(Nc3ccc(CS(C)(=O)=O)cc3)n2)cc1"
  assay endpoint: "inhibition"
  endpoint value: "15.1%"
- sample smiles: "CCS(=O)(=O)c1ccc(OC)c(Nc2ncc(-c3cccc(F)c3)o2)c1"
  assay endpoint: "inhibition"
  endpoint value: "45.9%"
- sample smiles: "NC(=O)c1ccc2c(-c3ccnc(NCCCO)n3)c(-c3ccc(F)cc3)nn2c1"
  assay endpoint: "inhibition"
  endpoint value: "40.3%"
- sample smiles: "CNC(=O)c1sc(-n2cnc3cc(OC)c(OC)cc32)cc1OCc1ccccc1C(F)(F)F"
  assay endpoint: "inhibition"
  endpoint value: "14%"

Query Cc1cc(O)cc(C)c1/C=C/c1cncc(C(=O)OC(C)(C)C)c1 yields inhibition of 68%

Per the records, this compound ( N#Cc1cccc(Nc2ncc(-c3ccccc3)o2)c1 ) has inhibition equal to 0.63%
